Reported IC50 values are given for each entry in this list.
Target: Beta-ketoacyl-[acyl-carrier-protein] synthase III (Escherichia coli K-12)
Sequence (P0A6R0 whole entry): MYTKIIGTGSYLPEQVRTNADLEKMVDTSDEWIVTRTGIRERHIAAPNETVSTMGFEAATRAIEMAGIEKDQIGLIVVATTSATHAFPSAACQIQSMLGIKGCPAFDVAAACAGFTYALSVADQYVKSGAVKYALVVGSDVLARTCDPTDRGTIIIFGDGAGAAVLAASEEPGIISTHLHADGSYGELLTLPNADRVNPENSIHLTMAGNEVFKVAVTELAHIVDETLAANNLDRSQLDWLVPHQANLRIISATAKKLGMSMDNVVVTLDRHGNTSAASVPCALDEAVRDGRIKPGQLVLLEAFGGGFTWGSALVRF
Observable: IC50 (µM)

chemical_smiles=Cc1ncc([N+](=O)[O-])n1CCOc1cccc(/C=N/Nc2nc(-c3ccc(C(F)(F)F)cc3)cs2)c1 unit_tag=µM experimental_value=13.5
chemical_smiles=Cc1ncc([N+](=O)[O-])n1CCOc1cccc(/C=N/Nc2nc(-c3ccc(Br)cc3)cs2)c1 unit_tag=µM experimental_value=20.8
chemical_smiles=Cc1ncc([N+](=O)[O-])n1CCOc1ccc(/C=N/Nc2nc(-c3ccc(Br)cc3)cs2)cc1 unit_tag=µM experimental_value=6.2
chemical_smiles=Cc1ncc([N+](=O)[O-])n1CCOc1cccc(/C=N/Nc2nc(-c3ccccc3)cs2)c1 unit_tag=µM experimental_value=8.6
